# experimental details: Rat pharmacokinetics, i.v. bolus
# Format: in vivo, Sprague-Dawley rats
# details: rat, in vivo, iv, 45 mg/kg, female Sprague-Dawley rats, single 45 mg/kg slow i.v. bolus, plasma, LC-MS/MS, noncompartmental, n = 3 to 5/dose; read-out: Vss (volume of distribution at steady state)
Starred links: 1 amine or outer side, 2 acyl side, 3 side chain; linkers in the order of their positions; H or OH if unused. Positions of bridges follow the written chain, without caps; N, C: chain ends. Non-standard residues stand in square brackets, D forms with d. Residues, ends and D or L forms follow the SMILES beside them. *: point of attachment. Orn(4R-OH,5R-OCH2CH2NMe3+) = C[N+](C)(C)CCO[C@@H](N[*:3])[C@H](O)C[C@H](N[*:1])C(=O)[*:2]; pTerphenylCO(4''-OnC5H11) = CCCCCOc1ccc(-c2ccc(-c3ccc(C(=O)*)cc3)cc2)cc1; hTyr(3S-OH,4S-OH) = N[C@H](C(=O)O)[C@H](O)[C@@H](O)c1ccc(O)cc1; Pro(3S-OH,4S-Me) = C[C@H]1CN[C@H](C(=O)O)[C@H]1O; Hyp = O=C(O)[C@@H]1C[C@@H](O)CN1
endpoint name: Vd (L/kg)
Hi! Could you send only the number? It should be in L/kg, unit omitted.

Query block: I'd like to know its Vd. The compound in question is CCCCCOc1ccc(-c2ccc(-c3ccc(C(=O)N[C@H]4C[C@@H](O)[C@@H](OCC[N+](C)(C)C)NC(=O)[C@@H]5[C@@H](O)[C@@H](C)CN5C(=O)[C@H]([C@@H](C)O)NC(=O)[C@H]([C@H](O)[C@@H](O)c5ccc(O)cc5)NC(=O)[C@@H]5C[C@@H](O)CN5C(=O)[C@H]([C@@H](C)O)NC4=O)cc3)cc2)cc1 [CD101] ({pTerphenylCO(4''-OnC5H11)}-[Orn(4R-OH,5R-OCH2CH2NMe3+)]T[Hyp][hTyr(3S-OH,4S-OH)]T[Pro(3S-OH,4S-Me)]; lactam 1-C)
Result block: 1.55
